The origin of these recorded values is patent US7645752B2.

targetUnderTest: human cloned 5-HT6 receptors (Homo sapiens)
Construct: expressed in transfected cells; host or cells: HeLa cells
Sequence (P50406 whole entry): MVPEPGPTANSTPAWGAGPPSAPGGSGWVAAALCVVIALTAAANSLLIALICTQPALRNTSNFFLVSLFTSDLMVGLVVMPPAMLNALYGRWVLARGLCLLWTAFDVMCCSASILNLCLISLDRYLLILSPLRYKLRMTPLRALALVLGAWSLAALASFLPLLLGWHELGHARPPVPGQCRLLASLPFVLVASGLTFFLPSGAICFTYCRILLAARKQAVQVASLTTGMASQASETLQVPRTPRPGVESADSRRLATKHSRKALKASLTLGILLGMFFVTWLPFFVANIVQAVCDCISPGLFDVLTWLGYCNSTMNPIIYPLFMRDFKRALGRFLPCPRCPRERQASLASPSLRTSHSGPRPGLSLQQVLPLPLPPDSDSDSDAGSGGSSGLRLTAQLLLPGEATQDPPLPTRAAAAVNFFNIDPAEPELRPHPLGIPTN
experimentalDetails: 5-HT6 binding affinity, [3H]-LSD displacement on membranes of Hela cells
measurementParameters: Table 1; 5-HT6 binding, at 1 micromole; read-out: % inhibition at 1 micromole
recordedEndpoint: inhibition at 1 µM (%)

What does the data say about its inhibition at 1 µM? Entry: CN(CCc1ccc2c(S(=O)(=O)c3ccccc3)c[nH]c2c1)C1CCCCC1 [Example 96]
75

What does the data say about its inhibition at 1 µM? Entry: O=S(=O)(c1ccccc1)c1c[nH]c2cc(CCNC3CCC3)ccc12 [Example 92]
75

What does the data say about its inhibition at 1 µM? Entry: NCCc1cccc2[nH]cc(S(=O)(=O)c3ccccc3)c12 [Example 61]
44

What does the data say about its inhibition at 1 µM? Entry: O=S(=O)(c1cccc(F)c1)c1c[nH]c2cccc(CCNCC3CCCO3)c12 (stereo not drawn) [Example 82]
72

What does the data say about its inhibition at 1 µM? Entry: CCC(C)CNCCc1ccc2c(S(=O)(=O)c3ccccc3)c[nH]c2c1 (stereo not drawn) [Example 104]
69

A = CCC(CC)NCCc1ccc2c(S(=O)(=O)c3ccccc3)c[nH]c2c1 [Example 103]
B = CN(C)CCCNCCc1cccc2[nH]cc(S(=O)(=O)c3cccc(F)c3)c12 [Example 83]
For A and B , which recorded inhibition at 1 µM is lower? Answer = label.
B
(B: 42%, A: 63%)
